Biological target: UniProtKB Q96PN6
Sequence (Q96PN6 whole entry): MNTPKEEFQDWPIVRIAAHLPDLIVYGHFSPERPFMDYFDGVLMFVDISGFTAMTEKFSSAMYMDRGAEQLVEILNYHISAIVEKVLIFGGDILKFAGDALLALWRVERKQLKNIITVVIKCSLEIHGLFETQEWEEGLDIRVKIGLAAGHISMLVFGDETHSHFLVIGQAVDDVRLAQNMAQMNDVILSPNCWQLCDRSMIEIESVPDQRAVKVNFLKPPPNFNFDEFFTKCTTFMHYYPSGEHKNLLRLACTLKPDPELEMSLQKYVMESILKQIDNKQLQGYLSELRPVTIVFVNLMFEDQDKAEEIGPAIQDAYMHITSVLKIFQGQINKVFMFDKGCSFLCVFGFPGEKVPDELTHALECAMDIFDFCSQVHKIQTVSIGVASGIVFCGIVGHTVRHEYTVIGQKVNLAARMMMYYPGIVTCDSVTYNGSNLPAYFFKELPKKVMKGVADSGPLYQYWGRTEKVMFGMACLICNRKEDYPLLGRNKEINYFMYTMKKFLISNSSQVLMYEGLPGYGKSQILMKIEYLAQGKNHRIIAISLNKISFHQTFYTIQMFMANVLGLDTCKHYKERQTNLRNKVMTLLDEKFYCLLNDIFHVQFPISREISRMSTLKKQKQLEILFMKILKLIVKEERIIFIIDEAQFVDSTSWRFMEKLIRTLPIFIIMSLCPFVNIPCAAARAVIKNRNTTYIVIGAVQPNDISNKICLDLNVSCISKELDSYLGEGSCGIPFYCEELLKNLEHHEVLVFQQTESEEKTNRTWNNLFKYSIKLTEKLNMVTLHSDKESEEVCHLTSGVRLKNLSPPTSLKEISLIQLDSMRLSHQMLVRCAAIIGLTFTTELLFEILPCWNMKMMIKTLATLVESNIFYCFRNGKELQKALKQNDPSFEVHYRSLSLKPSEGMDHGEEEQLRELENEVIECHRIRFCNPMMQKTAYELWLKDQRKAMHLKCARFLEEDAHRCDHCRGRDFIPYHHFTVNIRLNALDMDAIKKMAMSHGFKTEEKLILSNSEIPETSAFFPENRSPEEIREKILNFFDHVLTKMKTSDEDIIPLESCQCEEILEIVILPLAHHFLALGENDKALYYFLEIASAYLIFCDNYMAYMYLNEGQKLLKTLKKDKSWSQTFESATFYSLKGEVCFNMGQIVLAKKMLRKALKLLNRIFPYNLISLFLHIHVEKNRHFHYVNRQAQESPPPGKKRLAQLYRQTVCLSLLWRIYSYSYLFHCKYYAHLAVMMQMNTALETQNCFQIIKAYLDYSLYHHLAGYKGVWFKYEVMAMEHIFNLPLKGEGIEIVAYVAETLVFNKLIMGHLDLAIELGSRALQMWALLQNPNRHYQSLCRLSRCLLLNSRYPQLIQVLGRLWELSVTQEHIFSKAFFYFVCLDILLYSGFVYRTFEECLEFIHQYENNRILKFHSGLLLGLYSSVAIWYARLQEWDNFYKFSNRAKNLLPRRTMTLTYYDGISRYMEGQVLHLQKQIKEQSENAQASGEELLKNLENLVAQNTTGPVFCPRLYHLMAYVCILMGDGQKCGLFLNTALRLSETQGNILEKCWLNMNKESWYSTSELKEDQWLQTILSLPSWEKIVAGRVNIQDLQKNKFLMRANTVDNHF
Assay: sAC assay (HTRF cAMP detection)
Format: biochemical
Details: read-out: IC50 (μM), inhibition of soluble adenylate cyclase
experimentalReadout: IC50 (µM)
Numbers only here, please. The scale is µM.

The examples below pair each entry with its known result.
>>> observedvalue("CC(CO)NC(=O)c1oc2ccc(NS(=O)(=O)c3ccc(C(C)(C)C)cc3)cc2c1-c1ccccc1 (racemic) [Example 17]")
8.5
>>> observedvalue("CC(O)CNC(=O)c1oc2ccc(NS(=O)(=O)c3ccc(C(C)(C)C)cc3)cc2c1-c1ccccc1 (racemic) [Example 16]")
4.3

Please find the next compound below.
Query: Could you share which IC50 value was measured for CC(C)(C)c1ccc(S(=O)(=O)Nc2ccc3oc(C(=O)NCCN4CCOCC4)c(-c4ccccc4)c3c2)cc1 [Example 6] ?
Result: 5.2
